FYI, the data here is from patent US20220251562.

- assayTarget: CD3 epsilon/gamma heterodimer (Homo sapiens, UniProt P07766;P09693 P07766:23-126,P09693:23-116)
- Sequence (P07766 23-126, chain 1 of 2): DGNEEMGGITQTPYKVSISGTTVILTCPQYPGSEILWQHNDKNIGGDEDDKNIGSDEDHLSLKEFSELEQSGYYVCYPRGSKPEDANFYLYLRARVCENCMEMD
- Sequence (P09693 23-116, chain 2 of 2): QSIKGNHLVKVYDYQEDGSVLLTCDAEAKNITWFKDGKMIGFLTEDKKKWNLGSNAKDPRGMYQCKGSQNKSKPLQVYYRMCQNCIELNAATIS
- methodDescription: SPR; steady state; kinetic 9.5 pM (Table 6), 304 pM (Table 8); 99 nM steady state (Table 9)
- measurementSetup: tags: C-terminal human IgG1 Fc fusion, AcroBiosystems; chain copies: heterodimer 1:1 (inferred); label: 5'-biotin-TEG
pKd: −log10 of the molar value.
readout: pKd

{"binder": "TACCGCGGGGATTGGCTCCGGGCCTGGCGTCGTAATCTGA (ssDNA) [CELTIC_19s]", "readoutValue": 6.98}
